Values compiled from patent US6670363B1.

system: Candida; test: In vitro MIC, NCCLS M27A, Candida species; assay type: cell-based; set-up: unit not given beside the values; settings: Candida albicans strain Y-01-19
Hi! Could you tag entries with MIC, Candida albicans Y-01-19 below 1 as yes, and those at or above as no? Much appreciated.

Here are 10 compounds together with their reported answers.
| Compound | Assayed Target | Class Label |
| --- | --- | --- |
| Cc1ccc(Cl)cc1N1CCN(c2ccc(-n3cnn(CC(O)(Cn4cncn4)c4ccc(F)cc4F)c3=O)cc2)CC1 (centres unmarked) | Candida | yes |
| O=c1n(-c2ccc(N3CCN(c4cccc(Cl)c4)CC3)cc2)cnn1CC(O)(Cn1cncn1)c1ccc(F)cc1F (centres unmarked) | Candida | yes |
| O=c1n(-c2ccc(N3CCN(c4ccccc4F)CC3)cc2)cnn1CC(O)(Cn1cncn1)c1ccc(F)cc1F (centres unmarked) | Candida | yes |
| Cc1ccc(Cl)cc1N1CCN(c2ccc(-n3cnn([C@H](C)[C@](O)(Cn4cncn4)c4ccc(F)cc4F)c3=O)cc2)CC1 | Candida | yes |
| COc1ccccc1N1CCN(c2ccc(-n3c(C)nn(CC(O)(Cn4cncn4)c4ccc(F)cc4F)c3=O)cc2)CC1 (centres unmarked) | Candida | no |
| C[C@@H](n1ncn(-c2ccc(N3CCN(c4ccc(F)cc4)CC3)cc2)c1=O)[C@](O)(Cn1cncn1)c1ccc(F)cc1F | Candida | yes |
| C[C@@H](n1ncn(-c2ccc(N3CCN(c4ccc(Cl)cc4)CC3)cc2)c1=O)[C@@](O)(Cn1cncn1)c1ccc(F)cc1F | Candida | yes |
| Cc1ccc(N2CCN(c3ccc(-n4cnn(CC(O)(Cn5cncn5)c5ccc(F)cc5F)c4=O)cc3)CC2)cc1Cl (centres unmarked) | Candida | yes |
| COc1ccc(F)cc1N1CCN(c2ccc(-n3c(C)nn([C@H](C)[C@@](O)(Cn4cncn4)c4ccc(F)cc4F)c3=O)cc2)CC1 | Candida | no |
| O=c1n(-c2ccc(N3CCN(c4ccc(F)cc4)CC3)cc2)cnn1CC(O)(Cn1cncn1)c1ccc(F)cc1F (centres unmarked) | Candida | yes |

Task item: Report whether reported MIC, Candida albicans Y-01-19 is lower than 1 (strictly) for O=c1n(-c2ccc(N3CCN(c4ccc(Cl)cc4Cl)CC3)cc2)cnn1CC(O)(Cn1cncn1)c1ccc(F)cc1F (centres unmarked)
Reply: yes

Task item: Does the reported MIC, Candida albicans Y-01-19 of COc1ccccc1N1CCN(c2ccc(-n3cnn(CC(O)(Cn4cncn4)c4ccc(F)cc4F)c3=O)cc2)CC1 (centres unmarked) stay below 1?
Reply: no

###

Some molecules, each annotated with its measured MIC, H. capsulatum.
system: Histoplasma capsulatum; format: cell-based

| Molecule | MIC, H. capsulatum |
| --- | --- |
| O=c1n(-c2ccc(N3CCN(c4ccccc4F)CC3)cc2)cnn1CC(O)(Cn1cncn1)c1ccc(F)cc1F (stereo not drawn) [Compound 62] | < 0.03 µg/mL |
| O=c1n(-c2ccc(N3CCN(c4ccccc4)CC3)cc2)cnn1CC(O)(Cn1cncn1)c1ccc(F)cc1F (stereo not drawn) [Compound 45] | 3.12 µg/mL |
| O=c1n(-c2ccc(N3CCN(c4cccc(Cl)c4)CC3)cc2)cnn1CC(O)(Cn1cncn1)c1ccc(F)cc1F (stereo not drawn) [Compound 57] | 0.06 µg/mL |
| O=c1n(-c2ccc(N3CCN(c4ccc(Cl)cc4)CC3)cc2)cnn1CC(O)(Cn1cncn1)c1ccc(F)cc1F (stereo not drawn) [Compound 47] | 0.05 µg/mL |
| CCc1ccccc1N1CCN(c2ccc(-n3c(C)nn([C@H](C)[C@@](O)(Cn4cncn4)c4ccc(F)cc4F)c3=O)cc2)CC1 [Compound 32] | 0.25 µg/mL |

Task item: Given the entry COc1ccc(N2CCN(c3ccc(-n4cnn(CC(O)(Cn5cncn5)c5ccc(F)cc5F)c4=O)cc3)CC2)cc1 (stereo not drawn) [Compound 41] , what MIC, H. capsulatum was observed with Histoplasma capsulatum?
Reply: < 0.02 µg/mL

Task item: Test system Histoplasma capsulatum; read-out MIC, H. capsulatum; what value for O=c1n(-c2ccc(N3CCN(c4ccc(F)cc4)CC3)cc2)cnn1CC(O)(Cn1cncn1)c1ccc(F)cc1F (stereo not drawn) [Compound 43] ?
Reply: < 0.02 µg/mL

Task item: GET /values?readout=MIC, H. capsulatum&system=Histoplasma capsulatum&item= C[C@@H](n1ncn(-c2ccc(N3CCN(c4ccc(Cl)c(Cl)c4)CC3)cc2)c1=O)[C@](O)(Cn1cncn1)c1ccc(F)cc1F [Compound 7]
Reply: 0.12 µg/mL

Task item: Query MIC, H. capsulatum on Histoplasma capsulatum for C[C@@H](n1ncn(-c2ccc(N3CCN(c4ccccc4F)CC3)cc2)c1=O)[C@](O)(Cn1cncn1)c1ccc(F)cc1F [Compound 25]
Reply: 0.06 µg/mL

Task item: Quick check: MIC, H. capsulatum on Histoplasma capsulatum, item Cc1ccc(Cl)cc1N1CCN(c2ccc(-n3cnn([C@H](C)[C@@](O)(Cn4cncn4)c4ccc(F)cc4F)c3=O)cc2)CC1 [Compound 22] ?
Reply: > 16 µg/mL

Task item: So what MIC, H. capsulatum did Cc1ccc(Cl)cc1N1CCN(c2ccc(-n3cnn(CC(O)(Cn4cncn4)c4ccc(F)cc4F)c3=O)cc2)CC1 (stereo not drawn) [Compound 48] get with Histoplasma capsulatum?
Reply: 0.25 µg/mL

Task item: Identify the measured MIC, H. capsulatum of Cc1nn([C@H](C)[C@@](O)(Cn2cncn2)c2ccc(F)cc2F)c(=O)n1-c1ccc(N2CCN(c3ccccc3F)CC2)cc1 [Compound 26] for Histoplasma capsulatum.
Reply: 0.12 µg/mL
